# STUDY_SYSTEM: cathepsin L (Homo sapiens, UniProt P07711)
# Construct: made in house; host or cells: E. coli
# Sequence (P07711 114-333): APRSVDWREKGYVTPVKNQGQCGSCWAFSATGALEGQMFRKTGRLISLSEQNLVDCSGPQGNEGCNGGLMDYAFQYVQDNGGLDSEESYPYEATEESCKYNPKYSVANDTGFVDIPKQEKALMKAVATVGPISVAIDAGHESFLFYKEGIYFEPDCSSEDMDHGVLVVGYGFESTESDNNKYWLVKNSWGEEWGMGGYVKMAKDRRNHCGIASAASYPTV
# PROTOCOL_DETAILS: Kinetics of cathepsin L inhibition by metal ions, fluorogenic substrate Z-Leu-Arg-AMC
# Assay type: biochemical
# TEST_SETTINGS: Z-Leu-Arg-AMC, 25 °C, 0.1 M sodium acetate buffer pH 5.5, read-out: KX
pKi: −log10 of the molar value.
Quick reference: pKi of the listed items.
ASSAY_ENDPOINT: pKi

1. [Pb+2] [Pb^2+, reference compound] | 4.59
2. O=[N+]([O-])[O-].O=[N+]([O-])[O-].O=[N+]([O-])[O-].[Ga+3] | 6.22
3. [Zn+2] | 5.12

---

# STUDY_SYSTEM: cathepsins L, K, and S
# PROTOCOL_DETAILS: Kinetics of inhibition, summary over all tested peptidases
# TEST_SETTINGS: range over all peptidases tested (cathepsins L, K, S); read-out: equilibrium dissociation constants (inhibition constants)
pKi: −log10 of the molar value.
ASSAY_ENDPOINT: pKi

1) [Zn+2] | ~6.00

---

# STUDY_SYSTEM: cathepsin S (Homo sapiens)
# Construct: made in house; host or cells: E. coli
# Sequence (P25774 115-331): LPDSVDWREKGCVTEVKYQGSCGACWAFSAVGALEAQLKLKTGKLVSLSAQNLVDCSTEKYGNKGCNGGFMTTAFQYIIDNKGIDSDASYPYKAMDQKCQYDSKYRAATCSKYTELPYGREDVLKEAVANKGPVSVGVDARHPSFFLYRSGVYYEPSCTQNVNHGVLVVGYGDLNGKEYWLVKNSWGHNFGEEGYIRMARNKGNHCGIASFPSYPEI
# PROTOCOL_DETAILS: Kinetics of cathepsin S inhibition by metal ions, fluorogenic substrate Z-Val-Val-Arg-AMC
# Type: biochemical
# TEST_SETTINGS: Z-Val-Val-Arg-AMC, 25 °C, 0.1 M sodium acetate buffer pH 5.5, read-out: KX
pKi: −log10 of the molar value.
ASSAY_ENDPOINT: pKi

1. O=[N+]([O-])[O-].O=[N+]([O-])[O-].O=[N+]([O-])[O-].[Ga+3] | 5.43
2. [Pb+2] [Pb^2+, reference compound] | 4.30
3. [Zn+2] | 5.54

---

# STUDY_SYSTEM: cathepsin K (Homo sapiens, UniProt P43235)
# Construct: made in house; host or cells: E. coli
# Sequence (P43235 115-329): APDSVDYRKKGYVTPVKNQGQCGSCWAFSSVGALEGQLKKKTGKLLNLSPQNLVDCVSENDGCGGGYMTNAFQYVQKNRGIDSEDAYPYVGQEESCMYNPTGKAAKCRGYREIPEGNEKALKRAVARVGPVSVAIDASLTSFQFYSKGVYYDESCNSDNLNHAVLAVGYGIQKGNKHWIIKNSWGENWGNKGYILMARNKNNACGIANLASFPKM
# PROTOCOL_DETAILS: Kinetics of cathepsin K inhibition by metal ions, fluorogenic substrate Z-Phe-Arg-AMC
# Assay type: biochemical
# TEST_SETTINGS: read-out: KX
ASSAY_ENDPOINT: Ki

1) O=[N+]([O-])[O-].O=[N+]([O-])[O-].O=[N+]([O-])[O-].[Ga+3] | ~4 µM
